assay: amyloid nucleation score (Sup35N fusion, yeast selection) (log enrichment); library NNK1; higher = more nucleation; inactive = no reads after selection;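 further: zero at mode of non-aggregating sequences after 7 days selection at 30°C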
Mark 1 for reported amyloid nucleation score of 0.3 or greater; mark -1 for anything smaller.

NRDQRKGIVFTWAVVEPKLP
1
SHPRTYPWDSTDFVWLS
-1
SDRSLVGRNAGM
-1
RTLFIRSLVYFVLSSFIFAV
-1
GYGWHLSANNPVSNIRCPRA
-1
SSEVRMTVVSLGPLMDRPNV
-1
HNLRVIFCY
1
WNLATMVADRSPRNKLWTRP
1

Is amyloid nucleation score at least 0.3? Consider CFTICFVGYCSRVKGWLMQR -1

Is amyloid nucleation score at least 0.3? Consider SYAYKLETNSRFMIQWKVQY 1

Is amyloid nucleation score at least 0.3? Consider SRNNCSNRRDYHGIYSMRIS 1

Is amyloid nucleation score at least 0.3? Consider NLREDENSGCNCGVDFLGQG -1

Is amyloid nucleation score at least 0.3? Consider FLTAAWTSGHDGREFSPRPF 1

Is amyloid nucleation score at least 0.3? Consider QFLALVCFCIPRLVRLAGYE -1

Is amyloid nucleation score at least 0.3? Consider LCGTSGCSIRNLV -1

Is amyloid nucleation score at least 0.3? Consider ITVRAISMWWRDSS -1

Is amyloid nucleation score at least 0.3? Consider GILVCLNYLGLFVVYHGFVW 1

Is amyloid nucleation score at least 0.3? Consider LYSDGLFANRTWLYF 1

Is amyloid nucleation score at least 0.3? Consider WIEEIVCIGS 1

Is amyloid nucleation score at least 0.3? Consider IHLGCCMLFRRLGECRLVV -1

Is amyloid nucleation score at least 0.3? Consider PNQVYGTAFCGDEKNRMRWK 1

Is amyloid nucleation score at least 0.3? Consider LTHWTQHMF -1

Is amyloid nucleation score at least 0.3? Consider AANGCASSV -1

Is amyloid nucleation score at least 0.3? Consider CSHGNYHITCCPHAFFMTAI 1

Is amyloid nucleation score at least 0.3? Consider TRYGECAGWSGPYIADSGSA -1

Is amyloid nucleation score at least 0.3? Consider SILETLGLAFVK -1

Is amyloid nucleation score at least 0.3? Consider CTVDMEGFGFSRIVVDRGRS -1

Is amyloid nucleation score at least 0.3? Consider TSFWLSVKSTNPFNRRQFSD 1

Is amyloid nucleation score at least 0.3? Consider KVIRVYRADCCFTGWHFAVA -1

Is amyloid nucleation score at least 0.3? Consider GYLSHII -1

====

assay: amyloid nucleation score (Sup35N fusion, yeast selection) (log enrichment); library NNK3; higher = more nucleation; inactive = no reads after selection
endpoint: amyloid nucleation score

LTNRADE
inactive
MSRTKPLGF
inactive
ALFVGFRF
1.55
ISVAWWGCSTAYRRCKD
1.14
LHCLEFSCVRHSVRY
2.14
EWLGNCRNDCVMWLCYNMAS
inactive

Each of the following entries comes with a recorded value; kindly state amyloid nucleation score for each.
1. FLAFSMEYCYVPHFWKVSLS
2. LYGLVWYTQVGLLNVYSKIY
3. GPTLSGLNIAHWSNIYQDLG
4. YCTRNTCEIVGCILCGGLLS

1: 0.311; 2: 1.24; 3: inactive; 4: 2.45

Each of the following entries comes with a recorded value; kindly state amyloid nucleation score for each.
1. MLWEVDLNVRTSMADT
2. SWMDRILVRYWVVLDNRNFV
3. HHNTYCYVLFELFTV
4. GRRYVLEENSVIISWCVIYY
5. HIKVVRPRSRCDLLGSPISQ
6. YDMVLRSHATVAYSHYGFDM
7. KVLVFGFQCFIL
8. SYNYRGADRWLT

1: inactive; 2: inactive; 3: 0.505; 4: inactive; 5: inactive; 6: inactive; 7: 1.56; 8: inactive
